# assay: Clearance in mouse at 1 mg/kg, iv
# Format: ADME, organism-based
# conditions: in vivo
measurementType: clearance (mL/min/kg)
Please give a number only; it is taken to be in mL/min/kg.

Guide cases for clearance, answers given:
smilesRepresentation: COc1cc(N2CCC3(CNC3)C2)ccc1Nc1ncc(Cl)c(Nc2ccccc2P(C)(C)=O)n1
clearance [mL/min/kg]: 69
//
smilesRepresentation: COc1cc(N2CCC3(CCNCC3)CC2)ccc1Nc1ncc(Cl)c(Nc2ccccc2P(C)(C)=O)n1
clearance [mL/min/kg]: 20.1

Let's switch to this compound now.
clearance in this record for COc1cc(N2CCC3(CC2)CNC3)ccc1Nc1ncc(Cl)c(Nc2ccccc2P(C)(C)=O)n1 : 49

----------
# assay: cells
# conditions: Mus musculus, BaF3, 72 h
Here the recorded IC50 is given for each entry.
Please give a number only; it is taken to be in nM.

smilesRepresentation: COc1cc(N2CCC3(CCN(C)CC3)CC2)ccc1Nc1ncc(Cl)c(Nc2ccccc2P(C)(C)=O)n1
IC50, nM: 36

Let's switch to this molecule now.
IC50 in this record for COc1cc(N2CCC(N3CCN(C)CC3)CC2)ccc1Nc1ncc(Cl)c(Nc2ccccc2P(C)(C)=O)n1 : 31

----------
# assay: Clearance in Balb/c nude mouse at 1 mg/kg, iv
# Type: ADME, organism-based
# conditions: in vivo
Here the recorded clearance is given for each entry.
Please give a number only; it is taken to be in mL/min/kg.

smilesRepresentation: COc1cc(N2CCC3(CCN(C)CC3)CC2)ccc1Nc1ncc(Cl)c(Nc2ccccc2P(C)(C)=O)n1
clearance (mL/min/kg): 22.4

Let's switch to this compound now.
clearance in this record for COc1cc(N2CCC3(CCN(C)CC3)CC2)ccc1Nc1ncc(Cl)c(Nc2ccccc2P(C)(C)=S)n1 : 61

----------
# assay: Cmax in Sprague-Dawley rat at 8 mg/kg, po
# Assay type: ADME, organism-based
# Set-up: dose 8 mg/kg, route po
# conditions: in vivo
measurementType: Cmax

Cmax in this record for COc1cc(N2CCC3(CCN(C)CC3)CC2)ccc1Nc1ncc(Cl)c(Nc2ccccc2P(C)(C)=O)n1 [IRUPLINALKIB] : 499 ng/mL

----------
# assay: Cmax in mouse at 10 mg/kg, po
# Type: ADME, organism-based
# Design: dose 10 mg/kg, route po
# conditions: in vivo
measurementType: Cmax (ng/mL)
Please give a number only; it is taken to be in ng/mL.

Guide cases for Cmax, answers given:
smilesRepresentation: COc1cc(N2CCC3(CCNCC3)CC2)ccc1Nc1ncc(Cl)c(Nc2ccccc2P(C)(C)=O)n1
Cmax / ng/mL: 977

smilesRepresentation: COc1cc(N2CCC3(CC2)CNC3)ccc1Nc1ncc(Cl)c(Nc2ccccc2P(C)(C)=O)n1
Cmax / ng/mL: 113

Let's switch to this molecule now.
Cmax in this record for COc1cc(N2CCC3(CNC3)C2)ccc1Nc1ncc(Cl)c(Nc2ccccc2P(C)(C)=O)n1 : 28.7

----------
# assay: AUC (0 to last) in Balb/c nude mouse at 5 mg/kg, po
# Format: ADME, organism-based
# Design: time 0 - last, dose 5 mg/kg, route po
# conditions: in vivo
measurementType: AUC(0-t)

AUC(0-t) in this record for COc1cc(N2CCC3(CCN(C)CC3)CC2)ccc1Nc1ncc(Cl)c(Nc2ccccc2P(C)(C)=O)n1 [IRUPLINALKIB] : 2450 ng·h/mL
